target: GTPase HRas (Homo sapiens) (UniProt P01112); experiment: HRas wt fluorescent GTP binding changes, either direction – biochemical, wildtype, bead-based flow cytometry, multiplex, primary screen (AID 759); conditions: GST-Ras wt beads, Bodipy-FL-GTP binding, at 10 µM, actives lie on both sides;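 also: 0% = unlabeled GTP competition control and 100% = no-compound control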
Sequence (P01112 whole entry, looked up): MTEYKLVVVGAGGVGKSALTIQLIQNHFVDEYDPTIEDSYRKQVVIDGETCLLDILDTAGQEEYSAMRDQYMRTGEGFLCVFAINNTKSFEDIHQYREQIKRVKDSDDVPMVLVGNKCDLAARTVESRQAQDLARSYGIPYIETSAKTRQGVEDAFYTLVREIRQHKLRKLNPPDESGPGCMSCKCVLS
Hit rate of the full screen: of about 190,000 compounds, about 270 (0.14%) were called active. Another 2% or so got no clear call; they are omitted.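 The calls were made as follows: active = GTP binding activity at least 20% away from the 100% baseline, either lowered as inhibitor or raised as activator; inconclusive = flagged as likely green fluorescent, judged across all proteins in the well; inactive = the rest.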 The sample as a whole holds a higher share of actives than the screen did.
Outcome (select one): t (active), f (inactive)

These solved cases illustrate the format of a correct answer.
Molecule | Class assignment
Cc1cc2nc(C(F)(F)F)cc(-c3cccs3)n2n1 | f
COC(=O)C1=C(C)NC(=O)/C1=C/c1ccc(CNS(=O)(=O)c2ccc(C)cc2)o1 | f
C=CCOCCN(C)C1=NS(=O)(=O)c2ccccc21 | f
O=S(=O)(NCc1ccccc1)c1ccc(S(=O)(=O)N2CCCC2)cc1 | f
CC(=O)Nc1ccc(NC(=O)COc2ccc(S(=O)(=O)NC(C)c3ccccc3)cc2)cc1 (stereo not drawn) | f
O=C(OCC1O[C@@H](OC(=O)c2cc(O)c(O)c(O)c2)[C@@H](OC(=O)c2cc(O)c(O)c(O)c2)[C@@H](OC(=O)c2cc(O)c(O)c(O)c2)[C@@H]1OC(=O)c1cc(O)c(O)c(O)c1)c1cc(O)c(O)c(O)c1 (stereo partly drawn) | t

Let's switch to this molecule now.
Inquiry: Could you kindly confirm the outcome this assay logged for O=C1CC(c2c(F)cccc2Cl)C(n2cncn2)C(O)=C1C1NCCc2ccccc21 (stereo not drawn) ?
Reply text: f

---

Provide the recorded GTP binding activity for the entries that follow.
target: GTPase HRas (Homo sapiens) (UniProt P01112); experiment: HRas wt fluorescent GTP binding changes, either direction – biochemical, wildtype, bead-based flow cytometry, multiplex, primary screen (AID 759); settings: GST-Ras wt beads, Bodipy-FL-GTP binding, at 10 µM, actives lie on both sides;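 also: 0% = unlabeled GTP competition control and 100% = no-compound control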
The campaign covered roughly 190,000 compounds. About 270 (0.14%) were called active. Not shown: some 2% with an inconclusive outcome. Only a selection was taken, and actives are over-represented in it overall.

Known results for molecules:
Molecule | GTP binding activity
CC(=O)C1(C)N(O)C(C)(C)C(c2cccs2)=[N+]1[O-] (stereo unspecified) | 98% (inactive)
O=C(NCc1ccc(F)cc1)C(c1ccccc1)N(C(=O)c1csnn1)C1CC1 (stereo unspecified) | 95% (inactive)
O=C(CCN1C(=O)c2ccncc2C1=O)Nc1cc(F)ccc1F | 92% (inactive)
CCOc1ccc(NS(=O)(=O)c2cc(C)c(C)cc2C)cc1 | 98% (inactive)
Cc1ccc(NC(=S)NC(=O)c2ccc(-c3ccccc3)cc2)c(C)c1 | 100% (inactive)

Give measured GTP binding activity for every item shown.
1. O=C(Nc1ccc(-c2ccc3nncn3n2)cc1)C1CCCCC1
2. Cc1cc(OC(=O)c2ccccc2)c([N+](=O)[O-])c(=O)[nH]1
3. CCOC(=O)c1nc(Nc2ccc(C(=O)OC)cc2)c2ccccc2n1

Reply text:
1: 99% (inactive); 2: 101% (inactive); 3: 77% (active)

Give measured GTP binding activity for every item shown.
1. CCCCNC(=O)Nc1c(C)cc(SC#N)cc1C
2. Cc1noc(C)c1COc1cccc(C(=O)Nc2cccnc2)c1
3. CCOC(=O)c1cc2c(=O)[nH]c(C(Cl)(Cl)Cl)nc2o1
4. Cc1cc(/C=N/NC(N)=O)c(C)n1C1CCCCC1
5. COc1cc(C(=O)Nc2cc(C(F)(F)F)ccc2-n2cncn2)cc(OC)c1OC

Reply text:
1: 95% (inactive); 2: 97% (inactive); 3: 100% (inactive); 4: 100% (inactive); 5: 96% (inactive)

Give measured GTP binding activity for every item shown.
1. CSc1ncccc1C(=O)OCc1ccc(Br)cc1
2. Nc1ncnc(Nc2cccc(Cl)c2Cl)n1
3. O=c1/c(=C/c2ccc(CNS(=O)(=O)c3ccccc3)o2)sc2n1CCN=2
4. CCOC(=O)c1ccc(N/C(=N/S(=O)(=O)c2ccccc2)c2ccccc2)cc1

Reply text:
96% (inactive)
97% (inactive)
78% (active)
97% (inactive)

Where do these numbers come from? They come from PubChem BioAssay AID759.
